Origin of values: ChEMBL document CHEMBL2034929

assay: Drug metabolism in human RWPE1 cells at 10 uM after 26 hrs by UV-VIS spectrophotometry; assay type: ADME, cell-based, RWPE-1; settings: read-out: Drug metabolism
ATTRIBUTE_MEASURED: metabolised at 26 h, 10 µM (%)
Entry rule: numbers only, all in %.

Recorded metabolised at 26 h, 10 µM (molecule CN(C)c1ccc(/N=N/c2ccc(C(=O)NCC(=O)OCc3ccccc3C#CCNC(=O)c3ccc4c(c3)C3(OC4=O)c4ccc(O)cc4Oc4cc(O)ccc43)cc2)cc1 ): 10
